The origin of these recorded values is PubChem BioAssay.

z-score: recorded values
Assay: viability profiling in RPMI8226 myeloma cells – cell-based, resazurin fluorescence, basal, 24 h, PK04 Diversity Set, profiling panel (AID 1180);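 further: RPMI8826 multiple myeloma cell line at 5000 cells per well; test concentration not given here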
Conditions: higher = more signal
observable: z-score

INSERT INTO assay_data (compound, observable, reported_value) VALUES
  ('N#Cc1ccc(C(O)C2C=CC3C(=O)N(c4ccccc4)C(=O)C3N2Nc2ccccc2F)cc1 (stereo not given)', 'z-score', 0.148),
  ('COC(=O)C(CC#Cc1ccc2c(c1)[C@]1(C(=O)N2)[C@H](c2ccccc2OCCO)N2[C@H](c3ccccc3)[C@H](c3ccccc3)OC(=O)[C@H]2[C@@H]1C(N)=O)C(=O)OC', 'z-score', -7.42),
  ('CC(C)[Si](C#C[Si](C(C)C)(C(C)C)C(C)C)(O[C@H](C)c1cn(Cc2ccccc2)nn1)C(C)C', 'z-score', 0.776),
  ('O=C1C2C=CC(C(O)c3cc(C(F)(F)F)cc(C(F)(F)F)c3)N(Nc3ccccc3)C2C(=O)N1c1ccccc1 (stereo not given)', 'z-score', -2.49),
  ('C[C@H]1C2[C@H](Cc3ccccc3)NC(=O)[C@]23C(=O)NCC(=O)N2CCC[C@H]2C(=O)NC/C=C/CCC/C=C/C3[C@@H]2O[C@]12C (stereo not given in full)', 'z-score', 0.277),
  ('COc1ccc([Si](C)(C)[C@H]2[C@H](CC(=O)N3CCC[C@H]3CO)O[C@@]3(C(=O)N(Cc4cccc(N5CCOC5=O)c4)c4ccccc43)[C@@H]2C)cc1', 'z-score', -0.699),
  ('COCCCNC(=O)[C@@H]1c2ccccc2C(=O)N(Cc2ccccc2OC)[C@H]1c1ccc(CO)cc1', 'z-score', 1.14),
  ('C=C(CCCC)/C(=C/C[C@H](OC(C)=O)c1ccc(OCCO)cc1)c1cnc2ccccc2c1', 'z-score', 0.228),
  ('O=c1cccc(-c2ccccc2Cl)o1', 'z-score', -0.698),
  ('COC(=O)C(CC#Cc1ccc2c(c1)[C@]1(C(=O)N2)[C@H](c2ccccc2OCCO)N2[C@H](c3ccccc3)[C@H](c3ccccc3)OC(=O)[C@H]2[C@@H]1C(=O)O)C(=O)OC', 'z-score', -0.259),
  ('[N-]=[N+]=NCc1ccccc1[C@@H]1OC(c2ccc(OCCCO)cc2)=N[C@]1(CCS(=O)(=O)c1ccccc1)C(=O)N1CCCCC1', 'z-score', -0.808),
  ('CC(C)(C)OC(=O)CC[C@@]1(C(=O)N2CCCCC2)N=C(c2ccc(OCCCO)cc2)O[C@@H]1c1ccccc1', 'z-score', 0.0487),
  ('CN1C(=O)C2C=CC(C(O)c3c(F)cccc3Cl)N(NC(=O)OC(C)(C)C)C2C1=O (stereo not given)', 'z-score', -0.301),
  ('CCCNC(=O)[C@@]1(Sc2ccc(C)cc2)CC(=O)N(Cc2ccccc2C(F)(F)F)[C@@H]1c1ccc(CO)cc1I', 'z-score', -2.15),
  ('COc1ccc([Si](C)(C)[C@@H]2[C@@H](CC(=O)N3CCC[C@H]3CO)O[C@]3(C(=O)N(Cc4cccc(I)c4)c4ccccc43)[C@H]2C)cc1', 'z-score', -4.92),
  ('C=CCNC(=O)[C@H]1[C@@H]2C(=O)O[C@@H](c3ccccc3)[C@@H](c3ccccc3)N2[C@@H](c2ccc(O)cc2)[C@]12C(=O)Nc1ccc(C#CCCO)cc12', 'z-score', 1.08),
  ('CCCC(=O)N(CCc1c[nH]c2ccccc12)[C@@H]1CC(C(=O)NCCO)=C[C@H](Oc2c(I)cc(CO)cc2OC)[C@H]1O', 'z-score', 0.114),
  ('COCCOC(=O)N1C(=O)[C@@]2(c3ccccc31)[C@H](C(=O)N1CCCCCCC1)[C@H]1C(=O)O[C@H](c3ccccc3)[C@H](c3ccccc3)N1[C@@H]2c1ccc(OCCO)cc1', 'z-score', -0.281),
  ('C=C[C@H](C)[C@@H](OC(=O)Nc1ccc(SC)cc1)c1ccc(O)c2ccccc12', 'z-score', -3),
  ('O=C1OCCC=C[C@H]2OC34C=CCN(CCN5CCOCC5)C(=O)[C@H]3N(CCCCCO)C(=O)[C@@H]4C12 (stereo not given in full)', 'z-score', 0.571),
  ('O=C(O)[C@@]1(CCS(=O)(=O)c2ccccc2)N=C(c2ccc(OCCCO)cc2)O[C@H]1c1ccccc1', 'z-score', 1.26),
  ('C=C(/C(=C/C[C@H](OC(C)=O)c1ccc(OCCO)cc1)c1cc(C(=O)OC)ccc1OC)C(C)C', 'z-score', 0.0628),
  ('CCCNC(=O)[C@@H]1c2ccccc2C(=O)N(Cc2ccccc2OC)[C@H]1c1ccc(CO)cc1', 'z-score', -0.694),
  ('COc1cc2c(cc1O)C(c1cccs1)N(Cc1cccc(OC(F)(F)F)c1)CC2 (stereo not given)', 'z-score', -1.93),
  ('COc1ccccc1CN1C(=O)c2ccccc2[C@@]2(Cc3ccccc3N(CCCN(C)C)C2=O)[C@@H]1c1ccc(CO)cc1', 'z-score', 0.723),
  ('CCCC=C(CCC)[C@@H](NC(=O)OCC(C)C)c1ccccc1', 'z-score', 0.0342),
  ('COc1ccc(C#Cc2ccc3c(c2)[C@]2(C(=O)N3)[C@H](c3ccc(O)cc3)N3[C@H](c4ccccc4)[C@H](c4ccccc4)OC(=O)[C@H]3[C@@H]2C(=O)N2CCc3cc(OC)c(OC)cc3C2)cc1', 'z-score', -0.333),
  ('COC(=O)c1c2oc(c1C(=O)OC)C(=O)N[C@@H](C(C)C)Cn1cc(nn1)C1(CCCCC1)NC(=O)N[C@H](CO)CC2', 'z-score', 1.07),
  ('COc1ccc(NC(=O)O[C@H]2[C@H](OC(=O)c3cc4ccccc4[nH]3)[C@@H](OC(=O)c3cc4ccccc4[nH]3)[C@@H](OC)O[C@@H]2CO)cc1', 'z-score', -1.69),
  ('CCCC1(C(=O)OC)C=C2C(=C(c3ccccc3)C(=O)C2C)CN1 (stereo not given)', 'z-score', -0.77);
